test system: A498 renal; experiment: NCI tumour cell line growth inhibition, 48 h; in the data active = GI50 below about 0.43 µM; inactive = the rest
Answer with one of the outcomes given here: 1 = active, 0 = inactive

Fill in: this test's call for CC(C)n1nc(-c2cc3cc(O)ccc3[nH]2)c2c(N)ncnc21 is ___
1

Entry CC(=O)/C(C)=N/NC(=O)c1ccccc1O : call = ?
0

What was the test verdict on COc1cc(/C=C/c2cc(/C=C/c3ccc(O)c(OC)c3)n(C(=O)Nc3ccc(F)c(Cl)c3)n2)ccc1O ?
0

Answer briefly: the call reported for COc1ccccc1CNCCCN1C(=O)c2ccc3c4c(ccc(c24)C1=O)C(=O)N(CCCOCCCCOCCCN)C3=O in this assay.
0

* * *

system: NCI-H23 lung; experiment: NCI tumour cell line growth inhibition, 48 h
Measure name: TGI (µM)
Write the value in µM as a bare number.

API: value(readout= TGI, system= NCI-H23 lung, query= CCOC(=O)c1cc(C(O)P2(=O)N(CC(C)(C)C)[C@@H]3CCCC[C@H]3N2CC(C)(C)C)cn1C(=O)OC(C)(C)C (stereo not given in full) )
68.3

Give the reported TGI for COC(=O)[C@@H](C)CNS(=O)(=O)N(c1cc(C(F)(F)F)cc(C(F)(F)F)c1)C1CCN(Cc2ccc(F)cc2)CC1 (system: NCI-H23 lung).
25.9

Requested read-out TGI, target or system NCI-H23 lung, entry CC(=O)[O-].CCN(CC)c1ccc(C=NCCN=Cc2ccc(N(CC)CC)cc2[O-])c([O-])c1.[Mn+3]
37.6

Find TGI (NCI-H23 lung) for the entry COc1ccc2ccccc2c1/C=C/C(=O)c1ccccc1
9.69

Requested read-out TGI, target or system NCI-H23 lung, entry CCOc1ccccc1N=Nc1ccc2oc(=O)c(C(=O)Nc3cccc(C)c3)cc2c1
94.7

// map COC1=C(OC)C(=O)C(Cc2c(C)nc3sc(C)cn23)=C(C)C1=O to recorded TGI (system: NCI-H23 lung)
37.2

* * *

For each entry below, report its TGI value.
tested on: TK-10 renal; experiment: NCI tumour cell line growth inhibition, 48 h

Name the reported TGI value associated with the compound c1ccc2c(c1)ccn2CCc1c[nH]c2ccccc12
> 10 µM

Reported TGI for O=C1C=C(C2=CC(=O)C(=O)c3ccccc32)c2ccccc2C1=O : what is it?
75.4 µM

# TGI lookup, item COC(CNC(=O)C(C)NC(=O)CCc1ccccc1)OC (stereo unspecified)
> 100 µM

Form field: reported TGI of Clc1nc(Cl)c(Cl)c(-c2ccccc2)n1
32.9 µM

May I ask what TGI has been recorded for CC(C)(C)c1cc(Br)c(O)c(CN(Cc2cc(C(C)(C)C)cc(Br)c2O)C2CCCCC2)c1 ?
29.2 µM

What does the data say about its TGI? Entry: Cc1ccc(/C=C2\CCCc3ccccc3C2=O)cc1
> 100 µM

Consider the compound N=C1C(c2nc3ccccc3s2)=C(O)CN1c1cc(C(F)(F)F)ccc1Cl and give its measured TGI.
> 100 µM

Fill in: TGI of CCOC(=O)CC1(C(=O)OCC)c2[nH]c3ccccc3c2CCN1Cc1ccccc1 (stereo unspecified) is ___
> 100 µM

Fill in: TGI of O=C(NNC(=S)Nc1cccc(Cl)c1)c1cc(-c2ccccc2)nc2ccccc12 is ___
30.8 µM

Request the reported TGI associated with COc1ccc(C(=C(Cl)c2ccccc2)c2ccc(OC)cc2)cc1
> 100 µM

Please look up its TGI: CCCCCCCC/C=C/CCCCCCCC(=O)OC[C@H]1O[C@@H](n2ccc(N)nc2=O)C(F)(F)[C@@H]1O
> 100 µM
